SUBJECT OF TEST: δ receptor (Rattus norvegicus, UniProt P33533)
Construct: Rat membrane synaptosome preparations (P2 fraction) were prepared as detailed previously; from tissue; host or cells: rat synaptosomal membranes (P2 fraction)
Sequence (P33533 whole entry): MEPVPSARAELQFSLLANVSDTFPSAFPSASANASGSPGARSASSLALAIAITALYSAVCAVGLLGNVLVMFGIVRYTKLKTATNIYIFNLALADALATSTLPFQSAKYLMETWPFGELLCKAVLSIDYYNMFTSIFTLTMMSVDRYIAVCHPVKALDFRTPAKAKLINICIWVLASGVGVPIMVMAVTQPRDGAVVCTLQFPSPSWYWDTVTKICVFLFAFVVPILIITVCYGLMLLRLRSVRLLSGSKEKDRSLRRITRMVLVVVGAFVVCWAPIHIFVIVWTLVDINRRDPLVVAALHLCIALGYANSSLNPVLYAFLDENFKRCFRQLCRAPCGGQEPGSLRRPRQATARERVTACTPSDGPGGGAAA
ASSAY METHOD TEXT: Multi-site (one- vs two-site) δ receptor binding analysis
SETUP CONDITIONS: one-site vs two-site
Non-standard residues stand in square brackets, D forms with d. Residues, ends and D or L forms follow the SMILES beside them. Dmt = Cc1cc(O)cc(C)c1C[C@H](N)C(=O)O; Tic = O=C(O)[C@@H]1Cc2ccccc2CN1
ENDPOINT LABEL: δ receptor binding model fitted

[
  {
    "MOLECULE": "Cc1cc(O)cc(C)c1C[C@@H]1NC(=O)[C@@H]2Cc3ccccc3CN2C1=O [Peptide 6, c(Dmt-Tic)]",
    "ENDPOINT LABEL": "δ receptor binding model fitted",
    "RESULT": "two-site model"
  },
  {
    "MOLECULE": "Cc1cc(O)cc(C)c1C[C@H](N)C(=O)N1Cc2ccccc2C[C@H]1C(N)=O [Peptide 2, Dmt-Tic-NH2] (H-[Dmt]-[Tic]-NH2; N-terminus assumed)",
    "ENDPOINT LABEL": "δ receptor binding model fitted",
    "RESULT": "one-site binding model"
  },
  {
    "MOLECULE": "Cc1cc(O)cc(C)c1C[C@H](N)C(=O)N1Cc2ccccc2C[C@H]1CO [Peptide 5, Dmt-Tic--CH2 OH]",
    "ENDPOINT LABEL": "δ receptor binding model fitted",
    "RESULT": "two-site model"
  },
  {
    "MOLECULE": "Cc1cc(O)cc(C)c1C[C@H](N)C(=O)N1Cc2ccccc2C[C@H]1C(=O)O [Peptide 1, Dmt-Tic-OH] (H-[Dmt]-[Tic]-OH; N-terminus assumed)",
    "ENDPOINT LABEL": "δ receptor binding model fitted",
    "RESULT": "one-site binding model"
  }
]

---

SUBJECT OF TEST: μ receptors (Cavia porcellus, UniProt P97266)
Sequence (P97266 whole entry, looked up): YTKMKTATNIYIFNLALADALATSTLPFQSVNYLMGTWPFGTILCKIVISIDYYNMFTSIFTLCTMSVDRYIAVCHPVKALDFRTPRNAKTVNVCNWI
ASSAY METHOD TEXT: Guinea-pig ileum (GPI) bioassay, electrically stimulated contractions
pIC50: −log10 of the molar value. Non-standard residues stand in square brackets, D forms with d. Residues, ends and D or L forms follow the SMILES beside them. Dmt = Cc1cc(O)cc(C)c1C[C@H](N)C(=O)O; Tic = O=C(O)[C@@H]1Cc2ccccc2CN1
Each entry below carries its recorded pIC50.

Known results for molecules:
[
  {
    "MOLECULE": "Cc1cc(O)cc(C)c1C[C@@H]1NC(=O)[C@@H]2Cc3ccccc3CN2C1=O [Peptide 6, c(Dmt-Tic)]",
    "ENDPOINT LABEL": "pIC50",
    "RESULT": 4.70
  },
  {
    "MOLECULE": "Cc1cc(O)cc(C)c1C[C@H](N)C(=O)N1Cc2ccccc2C[C@H]1CO [Peptide 5, Dmt-Tic--CH2 OH]",
    "ENDPOINT LABEL": "pIC50",
    "RESULT": "< 5.00"
  }
]

Consider the additional molecule presented here.
The value of pIC50 measured for the molecule Cc1cc(O)cc(C)c1C[C@H](N)C(=O)N1Cc2ccccc2C[C@H]1C(N)=O [Peptide 2, Dmt-Tic-NH2] (H-[Dmt]-[Tic]-NH2; N-terminus assumed) turned out to be < 5.00

---

SUBJECT OF TEST: δ receptors (Mus musculus)
Sequence (P32300 whole entry): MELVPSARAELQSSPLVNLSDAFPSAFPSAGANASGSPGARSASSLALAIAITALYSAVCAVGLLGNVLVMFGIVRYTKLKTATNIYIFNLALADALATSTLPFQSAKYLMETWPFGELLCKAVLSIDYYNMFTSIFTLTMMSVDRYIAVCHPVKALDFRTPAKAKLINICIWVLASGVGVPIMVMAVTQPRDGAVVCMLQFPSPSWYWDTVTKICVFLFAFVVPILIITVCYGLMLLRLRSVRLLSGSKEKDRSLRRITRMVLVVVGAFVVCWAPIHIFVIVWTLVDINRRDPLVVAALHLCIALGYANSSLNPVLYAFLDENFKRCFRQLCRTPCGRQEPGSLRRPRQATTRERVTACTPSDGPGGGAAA
Non-standard residues stand in square brackets, D forms with d. Residues, ends and D or L forms follow the SMILES beside them. Dmt = Cc1cc(O)cc(C)c1C[C@H](N)C(=O)O; Tic = O=C(O)[C@@H]1Cc2ccccc2CN1
# reported log10 of Kb; entries follow
// do not treat as linear: log10 of Kb, unit nM

Here are 4 compounds together with their reported answers.
[
  {
    "COMPOUND": "Cc1cc(O)cc(C)c1C[C@@H]1NC(=O)[C@@H]2Cc3ccccc3CN2C1=O [Peptide 6, c(Dmt-Tic)]",
    "log10 of Kb": 3.57
  },
  {
    "COMPOUND": "Cc1cc(O)cc(C)c1C[C@H](N)C(=O)N1Cc2ccccc2C[C@H]1CO [Peptide 5, Dmt-Tic--CH2 OH]",
    "log10 of Kb": 2.00
  },
  {
    "COMPOUND": "Cc1cc(O)cc(C)c1C[C@H](N)C(=O)N1Cc2ccccc2C[C@H]1C(N)=O [Peptide 2, Dmt-Tic-NH2] (H-[Dmt]-[Tic]-NH2; N-terminus assumed)",
    "log10 of Kb": 1.80
  },
  {
    "COMPOUND": "Cc1cc(O)cc(C)c1C[C@H](N)C(=O)N1Cc2ccccc2C[C@H]1C(=O)N[C@@H](C)C(=O)O [Peptide 8, Dmt-Tic-Ala-OH] (H-[Dmt]-[Tic]-Ala-OH)",
    "log10 of Kb": 0.60
  }
]

Item: Cc1cc(O)cc(C)c1C[C@H](N)C(=O)N1Cc2ccccc2C[C@H]1C(=O)O [Peptide 1, Dmt-Tic-OH] (H-[Dmt]-[Tic]-OH; N-terminus assumed) | System: δ receptors (Mus musculus) | log10 of Kb: 0.80

---

SUBJECT OF TEST: μ receptors (Cavia porcellus)
ASSAY METHOD TEXT: Guinea-pig ileum (GPI) bioassay, electrically stimulated contractions
SETUP CONDITIONS: guinea-pig ileum; read-out: GPI IC50
Non-standard residues stand in square brackets, D forms with d. Residues, ends and D or L forms follow the SMILES beside them. Dmt = Cc1cc(O)cc(C)c1C[C@H](N)C(=O)O; Tic = O=C(O)[C@@H]1Cc2ccccc2CN1
ENDPOINT LABEL: pIC50
To interpret pIC50, take it as minus log10 of a concentration measured in moles per litre.

Observed pIC50, μ receptors (Cavia porcellus), Cc1cc(O)cc(C)c1C[C@H](N)C(=O)N1Cc2ccccc2C[C@H]1C(=O)N[C@@H](C)C(N)=O [Peptide 9, Dmt-Tic-Ala-NH2] (H-[Dmt]-[Tic]-Ala-NH2) : 5.32

---

SUBJECT OF TEST: δ receptor (Rattus norvegicus, UniProt P33533)
Construct: Rat membrane synaptosome preparations (P2 fraction) were prepared as detailed previously; from tissue; host or cells: rat synaptosomal membranes (P2 fraction)
ASSAY METHOD TEXT: Multi-site (one- vs two-site) δ receptor binding analysis
SETUP CONDITIONS: high affinity δ site, Prism fit; read-out: Ki (nM) High
Non-standard residues stand in square brackets, D forms with d. Residues, ends and D or L forms follow the SMILES beside them. Dmt = Cc1cc(O)cc(C)c1C[C@H](N)C(=O)O; Tic = O=C(O)[C@@H]1Cc2ccccc2CN1
Examples of compounds with documented Ki follow.
Quick note: give the figure in nM, leave out the unit.

Below are worked cases with known answers.
[
  {
    "COMPOUND": "Cc1cc(O)cc(C)c1C[C@H](N)C(=O)N1Cc2ccccc2C[C@H]1C(=O)N[C@@H](C)C(N)=O [Peptide 9, Dmt-Tic-Ala-NH2] (H-[Dmt]-[Tic]-Ala-NH2)",
    "Ki [nM]": 0.18
  },
  {
    "COMPOUND": "Cc1cc(O)cc(C)c1C[C@H](N)C(=O)N1Cc2ccccc2C[C@H]1C(=O)N[C@@H](C)C(=O)O [Peptide 8, Dmt-Tic-Ala-OH] (H-[Dmt]-[Tic]-Ala-OH)",
    "Ki [nM]": 0.12
  },
  {
    "COMPOUND": "Cc1cc(O)cc(C)c1C[C@@H]1NC(=O)[C@@H]2Cc3ccccc3CN2C1=O [Peptide 6, c(Dmt-Tic)]",
    "Ki [nM]": 0.09
  },
  {
    "COMPOUND": "Cc1cc(O)cc(C)c1C[C@H](N)C(=O)N1Cc2ccccc2C[C@H]1C(N)=O [Peptide 2, Dmt-Tic-NH2] (H-[Dmt]-[Tic]-NH2; N-terminus assumed)",
    "Ki [nM]": 1.06
  }
]

Then this compound:
Kindly note the recorded Ki for Cc1cc(O)cc(C)c1C[C@H](N)C(=O)N1Cc2ccccc2C[C@H]1CO [Peptide 5, Dmt-Tic--CH2 OH] , which is 0.13

---

SUBJECT OF TEST: δ opioid receptor (Rattus norvegicus, UniProt P33533)
Construct: Rat membrane synaptosome preparations (P2 fraction) were prepared as detailed previously; from tissue; host or cells: rat synaptosomal membranes (P2 fraction)
Sequence (P33533 whole entry): as the sequence (P33533 whole entry) above
ASSAY METHOD TEXT: δ receptor binding, rat membrane synaptosomes, [3H]DPDPE
SETUP CONDITIONS: ratio Ki μ / Ki δ
Non-standard residues stand in square brackets, D forms with d. Residues, ends and D or L forms follow the SMILES beside them. Dmt = Cc1cc(O)cc(C)c1C[C@H](N)C(=O)O; Tic = O=C(O)[C@@H]1Cc2ccccc2CN1; dTic = O=C(O)[C@H]1Cc2ccccc2CN1
Rule: μ/δ (receptor selectivity) of 70 or more gives true; anything lower gives false.

[
  {
    "MOLECULE": "Cc1cc(O)cc(C)c1C[C@@H]1NC(=O)[C@@H]2Cc3ccccc3CN2C1=O [Peptide 6, c(Dmt-Tic)]",
    "SUBJECT OF TEST": "δ opioid receptor (Rattus norvegicus, UniProt P33533)",
    "CATEGORY LABEL": "false"
  },
  {
    "MOLECULE": "Cc1cc(O)cc(C)c1C[C@H](N)C(=O)N1Cc2ccccc2C[C@H]1C(=O)N[C@@H](C)C(N)=O [Peptide 9, Dmt-Tic-Ala-NH2] (H-[Dmt]-[Tic]-Ala-NH2)",
    "SUBJECT OF TEST": "δ opioid receptor (Rattus norvegicus, UniProt P33533)",
    "CATEGORY LABEL": "true"
  },
  {
    "MOLECULE": "O=C1N[C@@H](Cc2ccc(O)cc2)C(=O)N2Cc3ccccc3C[C@@H]12 [Peptide 17, c(Tyr-Tic), reference compound]",
    "SUBJECT OF TEST": "δ opioid receptor (Rattus norvegicus, UniProt P33533)",
    "CATEGORY LABEL": "false"
  },
  {
    "MOLECULE": "O=C1N[C@@H](Cc2ccc(O)cc2)C(=O)N2Cc3ccccc3C[C@H]12 [Peptide 18, c(Tyr-D-Tic), reference compound]",
    "SUBJECT OF TEST": "δ opioid receptor (Rattus norvegicus, UniProt P33533)",
    "CATEGORY LABEL": "false"
  },
  {
    "MOLECULE": "N[C@@H](Cc1ccc(O)cc1)C(=O)N1Cc2ccccc2C[C@H]1C(=O)O [Peptide 12, Tyr-Tic-OH, reference compound] (H-Tyr-[Tic]-OH)",
    "SUBJECT OF TEST": "δ opioid receptor (Rattus norvegicus, UniProt P33533)",
    "CATEGORY LABEL": "true"
  }
]

input: For this molecule, is measured μ/δ (receptor selectivity) 70 or higher? C[C@H](NC(=O)[C@H]1Cc2ccccc2CN1C(=O)[C@@H](N)Cc1ccc(O)cc1)C(=O)O [Peptide 21, Tyr-D-Tic-Ala-OH, reference compound] (H-Tyr-[dTic]-Ala-OH)
output: false

input: Textbook exercise: given the entry Cc1cc(O)cc(C)c1C[C@H](N)C(=O)N1Cc2ccccc2C[C@H]1CO [Peptide 5, Dmt-Tic--CH2 OH] , state whether its μ/δ (receptor selectivity) is greater than or equal to 70.
output: true

input: API: above_or_equal(metric=μ/δ (receptor selectivity), cutoff=70) for item Cc1cc(O)cc(C)c1C[C@H](N)C(=O)N1Cc2ccccc2C[C@@H]1C(=O)N[C@@H](C)C(=O)O [Peptide 10, Dmt-D-Tic-Ala-OH] (H-[Dmt]-[dTic]-Ala-OH)
output: false

input: Tell me whether μ/δ (receptor selectivity) is at least 70 here: Cc1cc(O)cc(C)c1C[C@@H]1NC(=O)[C@H]2Cc3ccccc3CN2C1=O [Peptide 7, c(Dmt-D-Tic)]
output: false

input: Is it the case that N[C@@H](Cc1ccc(O)cc1)C(=O)N1Cc2ccccc2C[C@H]1CO [Peptide 16, Tyr-Tic-CH2 OH, reference compound] has μ/δ (receptor selectivity) reaching or exceeding 70?
output: true

input: Could you tell me if the measured μ/δ (receptor selectivity) of N[C@@H](Cc1ccc(O)cc1)C(=O)N1Cc2ccccc2C[C@@H]1C(=O)O [Peptide 14, Tyr-D-Tic-OH, reference compound] (H-Tyr-[dTic]-OH) reaches 70 or more?
output: false

input: Entry Cc1cc(O)cc(C)c1C[C@H](N)C(=O)N1Cc2ccccc2C[C@@H]1C(=O)N[C@@H](C)C(N)=O [Peptide 11, Dmt-D-Tic-Ala-NH2] (H-[Dmt]-[dTic]-Ala-NH2) : is its μ/δ (receptor selectivity) no less than 70?
output: false
